Data provenance is patent US20230079819A1.

The molecules listed here are annotated with their IC50.
- target.or.system: BRM (Homo sapiens, UniProt P51531)
- Construct: made in house; host or cells: High Five insect cells
- Sequence (P51531 whole entry): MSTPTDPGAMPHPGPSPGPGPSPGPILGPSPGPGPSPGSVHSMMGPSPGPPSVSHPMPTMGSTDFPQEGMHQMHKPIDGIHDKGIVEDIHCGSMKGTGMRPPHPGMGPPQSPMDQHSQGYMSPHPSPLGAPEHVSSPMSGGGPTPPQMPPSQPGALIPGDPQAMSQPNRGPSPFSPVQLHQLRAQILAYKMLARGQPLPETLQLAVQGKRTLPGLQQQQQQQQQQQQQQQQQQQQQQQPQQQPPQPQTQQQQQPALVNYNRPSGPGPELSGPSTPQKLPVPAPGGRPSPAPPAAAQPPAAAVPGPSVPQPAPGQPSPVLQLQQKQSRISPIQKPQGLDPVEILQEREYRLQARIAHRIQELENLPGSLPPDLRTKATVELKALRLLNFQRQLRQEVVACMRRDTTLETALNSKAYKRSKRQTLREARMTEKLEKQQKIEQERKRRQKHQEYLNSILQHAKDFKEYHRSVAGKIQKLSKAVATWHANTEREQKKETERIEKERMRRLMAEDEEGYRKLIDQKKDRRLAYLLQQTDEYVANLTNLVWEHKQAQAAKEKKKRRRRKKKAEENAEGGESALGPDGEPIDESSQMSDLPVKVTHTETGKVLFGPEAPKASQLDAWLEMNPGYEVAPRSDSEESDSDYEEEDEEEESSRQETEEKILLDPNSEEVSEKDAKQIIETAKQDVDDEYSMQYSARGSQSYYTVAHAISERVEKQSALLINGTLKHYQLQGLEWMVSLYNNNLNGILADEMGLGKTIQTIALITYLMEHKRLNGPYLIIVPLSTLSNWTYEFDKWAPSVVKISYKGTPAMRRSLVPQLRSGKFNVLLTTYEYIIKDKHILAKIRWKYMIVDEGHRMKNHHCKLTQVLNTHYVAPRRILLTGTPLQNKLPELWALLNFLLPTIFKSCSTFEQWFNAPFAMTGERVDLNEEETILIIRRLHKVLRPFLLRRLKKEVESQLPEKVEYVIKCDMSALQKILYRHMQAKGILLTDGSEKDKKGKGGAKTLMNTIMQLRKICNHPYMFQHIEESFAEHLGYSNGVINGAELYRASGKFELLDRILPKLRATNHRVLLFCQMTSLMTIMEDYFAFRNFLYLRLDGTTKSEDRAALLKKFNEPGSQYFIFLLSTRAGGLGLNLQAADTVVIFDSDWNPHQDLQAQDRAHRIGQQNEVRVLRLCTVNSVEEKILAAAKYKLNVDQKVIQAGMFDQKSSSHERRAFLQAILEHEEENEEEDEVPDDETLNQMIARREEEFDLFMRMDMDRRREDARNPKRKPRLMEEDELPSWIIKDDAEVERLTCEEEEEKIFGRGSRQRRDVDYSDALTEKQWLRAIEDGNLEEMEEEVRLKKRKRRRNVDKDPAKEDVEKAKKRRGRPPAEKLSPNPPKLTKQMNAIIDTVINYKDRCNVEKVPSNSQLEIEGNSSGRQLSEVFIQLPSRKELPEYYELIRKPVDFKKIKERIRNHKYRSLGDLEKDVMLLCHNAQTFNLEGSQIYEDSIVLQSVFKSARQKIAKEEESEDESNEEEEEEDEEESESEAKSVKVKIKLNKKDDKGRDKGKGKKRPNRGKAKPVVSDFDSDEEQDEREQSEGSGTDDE
- assay.explanation: ATPase catalytic activity of BRM, ADP-Glo in vitro biochemical assay
- particulars: ATPase catalytic activity, 30 nM BRM, 400 μM ATP, read-out: BRM IP50 (μM)*

                                   molecule  obs_value
0  C[C@H]1CN(c2cccc(-c3csc(NC(=O)CNC(=O)c4ccn(S(C)(=O)=O)c4)n3)c2)CCO1 [Compound 87]  < 0.01 µM
1  CO[C@H]1CN(c2cccc(-c3csc(NC(=O)CNC(=O)c4ccn(S(C)(=O)=O)c4)n3)c2)C[C@@H]1F [Compound 180]  > 0.01 µM
2  COC[C@H](NC(=O)c1ccn(S(C)(=O)=O)c1)C(=O)Nc1nc(-c2cccc(-c3cnn(C)n3)c2)cs1 [Compound 352]  < 0.01 µM
3  CS(=O)(=O)n1ccc(C(=O)NCC(=O)Nc2nc(-c3cccc(COc4ccncc4)c3)cs2)c1 [Compound 108]  < 0.01 µM
4  C[C@@H]1CN(c2cccc(-c3csc(NC(=O)CNC(=O)c4ccn(C5COC5)c4)n3)n2)C[C@H](C)O1 [Compound 343]  > 0.01 µM
5  Cn1cnc(-c2cccc(-c3csc(NC(=O)CNC(=O)c4ccn(S(C)(=O)=O)c4)n3)c2)c1 [Compound 18]  > 0.01 µM
6  CS(=O)(=O)n1ccc(C(=O)NCC(=O)Nc2nc(-c3cccc(N4CCCC4)c3)cs2)c1 [Compound 231]  > 0.01 µM
7  Cc1cc(C)cc(-c2cccc(-c3csc(NC(=O)CNC(=O)c4ccn(S(C)(=O)=O)c4)n3)c2)c1 [Compound 55]  < 0.01 µM

Form field: IC50 recorded for CS(=O)(=O)n1ccc(C(=O)NCC(=O)Nc2nc(-c3cccc(N4CCC(F)(F)C4)c3)cs2)c1 [Compound 225] with BRM (Homo sapiens, UniProt P51531) (enter value)
> 0.01 µM

Now try CS(=O)(=O)n1ccc(C(=O)N[C@@H](CO)C(=O)Nc2nc(-c3cccc(-c4ccncc4)c3)cs2)c1 [Compound 69] .
< 0.01 µM

Field entry: Cn1ncc2c1CCN(c1cccc(-c3csc(NC(=O)CNC(=O)c4ccn(S(C)(=O)=O)c4)n3)c1)C2 [Compound 234]
> 0.01 µM

Now the molecule CS(=O)(=O)n1ccc(C(=O)NCC(=O)Nc2nc(-c3cccc(N4CCC[C@@H](O)C4)c3)cs2)c1 [Compound 215]
> 0.01 µM

Please give the result for C[C@@]1(O)CCCN(c2cccc(-c3csc(NC(=O)CNC(=O)c4ccn(S(C)(=O)=O)c4)n3)c2)C1 [Compound 206] too.
< 0.01 µM

Lookup COC[C@H](NC(=O)c1ccn(S(C)(=O)=O)c1)C(=O)Nc1nc(-c2cc(F)c(F)c(N3C[C@@H](C)O[C@@H](C)C3)c2)cs1 [Compound 380]
< 0.01 µM

---

Reported IC50 values are given for each entry in this list.
- target.or.system: BRG-1 (Homo sapiens)
- Construct: made in house; host or cells: High Five insect cells
- assay.explanation: ATPase catalytic activity of BRG-1, ADP-Glo in vitro biochemical assay
- particulars: ATPase catalytic activity, 30 nM BRG-1, 400 μM ATP, read-out: BRG1 IP50

As a guide, the following entries are already answered.
>>> df
                                   compound  obs_value
0  CC(C)(C)n1ccc(C(=O)NCC(=O)Nc2nc(-c3cccc(N4CCC5(CC4)CC(F)C5)n3)cs2)c1   > 100 nM
1  N#CC1(n2ccc(C(=O)NCC(=O)Nc3nc(-c4cccc(OC5CC5)c4F)cs3)c2)CC1   > 100 nM
2  CC(C)(C#N)n1ccc(C(=O)NCC(=O)Nc2nc(-c3cc(F)c4c(c3)OCC4)cs2)c1    > 10 nM

Turning now to a further record.
Name the reported IC50 value associated with the compound Cc1nc(C2CCCN(c3cccc(-c4csc(NC(=O)CNC(=O)c5ccn(C(C)(C)C)c5)n4)n3)C2)no1 (stereo not shown)
> 10 nM

---

- target.or.system: BRG-1 (Homo sapiens, UniProt P51532)
- Construct: made in house; host or cells: High Five insect cells
- Sequence (P51532 whole entry): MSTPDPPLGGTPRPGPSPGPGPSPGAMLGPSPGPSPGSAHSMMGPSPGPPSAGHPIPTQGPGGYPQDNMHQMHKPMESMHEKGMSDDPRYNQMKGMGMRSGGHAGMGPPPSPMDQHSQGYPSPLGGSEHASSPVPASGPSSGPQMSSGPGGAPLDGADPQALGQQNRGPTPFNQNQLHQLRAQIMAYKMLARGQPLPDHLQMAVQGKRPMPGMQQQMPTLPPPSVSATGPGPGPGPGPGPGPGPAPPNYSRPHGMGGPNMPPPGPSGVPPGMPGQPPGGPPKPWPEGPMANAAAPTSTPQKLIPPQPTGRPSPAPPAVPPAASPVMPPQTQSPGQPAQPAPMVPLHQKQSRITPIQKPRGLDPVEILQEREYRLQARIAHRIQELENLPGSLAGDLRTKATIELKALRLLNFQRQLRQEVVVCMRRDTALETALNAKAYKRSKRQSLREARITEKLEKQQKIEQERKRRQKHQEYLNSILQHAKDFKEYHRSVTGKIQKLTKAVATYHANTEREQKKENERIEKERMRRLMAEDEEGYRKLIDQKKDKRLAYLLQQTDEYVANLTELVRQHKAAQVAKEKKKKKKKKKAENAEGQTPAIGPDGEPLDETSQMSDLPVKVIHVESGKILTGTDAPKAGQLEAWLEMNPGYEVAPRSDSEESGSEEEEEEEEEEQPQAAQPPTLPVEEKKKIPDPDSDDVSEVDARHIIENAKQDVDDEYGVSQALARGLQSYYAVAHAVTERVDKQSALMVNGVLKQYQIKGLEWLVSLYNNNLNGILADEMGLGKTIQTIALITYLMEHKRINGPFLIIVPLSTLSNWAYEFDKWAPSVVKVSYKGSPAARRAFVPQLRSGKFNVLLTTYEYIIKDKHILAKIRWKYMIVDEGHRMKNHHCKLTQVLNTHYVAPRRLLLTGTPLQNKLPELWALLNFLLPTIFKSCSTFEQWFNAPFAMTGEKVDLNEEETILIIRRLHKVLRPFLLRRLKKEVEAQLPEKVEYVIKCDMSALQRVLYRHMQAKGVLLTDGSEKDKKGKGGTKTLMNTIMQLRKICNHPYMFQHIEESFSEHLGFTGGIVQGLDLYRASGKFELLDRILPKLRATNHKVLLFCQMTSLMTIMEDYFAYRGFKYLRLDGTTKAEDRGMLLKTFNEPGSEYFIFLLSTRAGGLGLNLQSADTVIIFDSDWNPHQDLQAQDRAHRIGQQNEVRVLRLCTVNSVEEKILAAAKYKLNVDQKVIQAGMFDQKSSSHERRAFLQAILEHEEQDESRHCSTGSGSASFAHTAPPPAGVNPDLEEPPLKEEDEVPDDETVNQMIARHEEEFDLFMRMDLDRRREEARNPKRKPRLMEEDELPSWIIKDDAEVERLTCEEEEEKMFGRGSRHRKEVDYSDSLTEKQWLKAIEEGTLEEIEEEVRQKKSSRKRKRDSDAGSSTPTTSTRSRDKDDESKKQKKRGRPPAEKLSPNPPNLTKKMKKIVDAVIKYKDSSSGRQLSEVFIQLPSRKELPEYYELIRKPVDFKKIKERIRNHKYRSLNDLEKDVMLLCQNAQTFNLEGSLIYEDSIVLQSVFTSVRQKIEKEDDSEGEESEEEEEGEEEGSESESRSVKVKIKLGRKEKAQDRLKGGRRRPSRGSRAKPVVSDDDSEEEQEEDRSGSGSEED
- assay.explanation: ATPase catalytic activity of BRG-1, ADP-Glo in vitro biochemical assay
- particulars: ATPase catalytic activity, 30 nM BRG-1, 400 μM ATP, read-out: BRG1 IP50 (μM)*
assay.endpoint: IC50

Example entries begin here.
In [3]: df
Out[3]:
                                   compound  assay_endpoint  obs_value
0  COC[C@H](NC(=O)c1ccn(S(C)(=O)=O)c1)C(=O)Nc1nc(-c2cccc(-c3ccnc(C(F)F)c3)c2)cs1            IC50  < 0.01 µM
1  CC1Cc2ccc(-c3csc(NC(=O)CNC(=O)c4ccn(S(C)(=O)=O)c4)n3)cc2O1 (stereo not shown)            IC50  > 0.01 µM
2  C[C@H]1CN(c2cccc(-c3csc(NC(=O)CNC(=O)c4ccn(S(C)(=O)=O)c4)n3)c2)CC[C@H]1O            IC50  > 0.01 µM
3  CN(C)CCN(C)c1cc(-c2cccc(-c3csc(NC(=O)CNC(=O)c4ccn(S(C)(=O)=O)c4)n3)c2)ccn1            IC50  > 0.01 µM
4  CS(=O)(=O)n1ccc(C(=O)NCC(=O)Nc2nc(-c3cc(F)c4c(c3)OCC4)cs2)c1            IC50  < 0.01 µM

// fetch BRG-1 (Homo sapiens, UniProt P51532) IC50 for C[C@@H]1CN(c2cccc(-c3csc(NC(=O)CNC(=O)c4ccn(C(C)(C)C#N)c4)n3)c2)C[C@H](C)O1
< 0.01 µM

# iterate: COC[C@H](NC(=O)c1ccn(S(C)(=O)=O)c1)C(=O)Nc1nc(-c2cccc(N3CCO[C@@H](C)C3)c2)cs1
> 0.01 µM

---

In this section, each of the compounds is paired with its reported IC50.
- target.or.system: BRM (Homo sapiens)
- Construct: made in house; host or cells: High Five insect cells
- assay.explanation: ATPase catalytic activity of BRM, ADP-Glo in vitro biochemical assay
- particulars: ATPase catalytic activity, 30 nM BRM, 400 μM ATP, read-out: BRM IP50 (μM)*

>>> df
                               smiles_entry  assay_endpoint  obs_value
0  CS(=O)(=O)n1ccc(C(=O)NCC(=O)Nc2cccc(-c3cccc(-c4ccncc4)c3)n2)c1            IC50  > 0.01 µM
1  C[C@@H]1CN(c2nc(-c3csc(NC(=O)CNC(=O)c4ccn(S(C)(=O)=O)c4)n3)ccc2F)C[C@H](C)O1            IC50  < 0.01 µM
2  Cn1ccc(-c2cccc(-c3csc(NC(=O)CNC(=O)c4ccn(CC(C)(C)O)c4)n3)c2)n1            IC50     > 1 µM
3  CS(=O)(=O)n1ccc(C(=O)NCC(=O)Nc2nc(-c3cc(F)c4ccoc4c3)cs2)c1            IC50  > 0.01 µM

Tell me the measured IC50 of C[C@@H]1CN(c2cccc(-c3csc(NC(=O)CNC(=O)c4ccn(C5COC5)c4)n3)c2)C[C@H](C)O1 , please.
> 0.1 µM

Then what about the compound COC[C@H](NC(=O)c1ccn(C2(C)COC2)c1)C(=O)Nc1nc(-c2ccc(F)c(N3C[C@@H](C)O[C@@H](C)C3)n2)cs1 ?
> 0.01 µM

How about this compound: C[C@@H]1CN(c2cccc(-c3csc(NC(=O)CNC(=O)c4ccn(S(C)(=O)=O)c4)n3)c2)CCO1
< 0.01 µM

What do you get for CS(=O)(=O)n1ccc(C(=O)NCC(=O)Nc2nc(-c3cccc(OCc4ccncc4)c3)cs2)c1 ?
< 0.01 µM

// next record CNC(=O)CN(C)c1cc(-c2cccc(-c3csc(NC(=O)CNC(=O)c4ccn(S(C)(=O)=O)c4)n3)c2)ccn1
< 0.01 µM

Same question for CC(C)(C)n1ccc(C(=O)NCC(=O)Nc2nc(-c3cccc(-c4ccnc(CN)c4)c3)cs2)c1 please.
> 0.01 µM

---

List of IC50 values.
- target.or.system: BRG-1 (Homo sapiens)
- Construct: made in house; host or cells: High Five insect cells
- assay.explanation: ATPase catalytic activity of BRG-1, ADP-Glo in vitro biochemical assay
- particulars: ATPase catalytic activity, 30 nM BRG-1, 400 μM ATP, read-out: BRG1 IP50 (μM)*

# count of solved cases: 2
>>> print(df.to_string())
                               smiles_entry  obs_value
0  C[C@H]1CN(c2cccc(-c3csc(NC(=O)CNC(=O)c4ccn(S(C)(=O)=O)c4)n3)c2)CCO1  < 0.01 µM
1  CS(=O)(=O)n1ccc(C(=O)NCC(=O)Nc2nc(-c3cccc(COc4ccccc4)c3)cs2)c1  > 0.01 µM

Find the recorded IC50 belonging to COC[C@H](NC(=O)c1ccn(S(C)(=O)=O)c1)C(=O)Nc1nc(-c2cccc(-c3ccnc(C)c3)c2)cs1 and report it.
< 0.01 µM

Another compound: C[C@H](NC(=O)c1ccn(S(C)(=O)=O)c1)C(=O)Nc1nc(-c2cccc(-c3cnn(C)n3)c2)cs1
> 0.01 µM

Then what about the compound CS(=O)(=O)n1ccc(C(=O)NCC(=O)Nc2nc(-c3cccc(-c4ccnc(C(F)(F)F)c4)c3)cs2)c1 ?
< 0.01 µM

Subsequent entry: COC[C@H]1CCCN(c2cccc(-c3csc(NC(=O)CNC(=O)c4ccn(C(C)(C)C)c4)n3)n2)C1
> 0.01 µM

For COC[C@H](NC(=O)c1ccn(S(C)(=O)=O)c1)C(=O)Nc1nc(-c2cccc(-c3cnn(C)c3)c2)cs1 then?
> 0.01 µM
